# TARGET DESC: T1, ZFP SBS#574 (synthetic)
# T1 chain: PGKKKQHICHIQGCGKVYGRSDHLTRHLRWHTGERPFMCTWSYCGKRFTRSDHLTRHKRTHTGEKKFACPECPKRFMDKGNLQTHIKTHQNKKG
# PROCEDURE DETAILS: EMSA
# CONDITION DESCRIPTION: tags: MBP fusion
PROPERTY MEASURED: pKd
A value of pKd is the negative decimal logarithm of a concentration given in moles per litre.

Provide only the value of recorded pKd for TACGTGGGGT (dsDNA) DNA 1: TACGTGGGGT DNA 2: ACCCCACGTA
7.60
